The reported numbers originate from ChEMBL document CHEMBL1140792.

target_entity: UniProtKB P17706
Sequence (P17706 whole entry): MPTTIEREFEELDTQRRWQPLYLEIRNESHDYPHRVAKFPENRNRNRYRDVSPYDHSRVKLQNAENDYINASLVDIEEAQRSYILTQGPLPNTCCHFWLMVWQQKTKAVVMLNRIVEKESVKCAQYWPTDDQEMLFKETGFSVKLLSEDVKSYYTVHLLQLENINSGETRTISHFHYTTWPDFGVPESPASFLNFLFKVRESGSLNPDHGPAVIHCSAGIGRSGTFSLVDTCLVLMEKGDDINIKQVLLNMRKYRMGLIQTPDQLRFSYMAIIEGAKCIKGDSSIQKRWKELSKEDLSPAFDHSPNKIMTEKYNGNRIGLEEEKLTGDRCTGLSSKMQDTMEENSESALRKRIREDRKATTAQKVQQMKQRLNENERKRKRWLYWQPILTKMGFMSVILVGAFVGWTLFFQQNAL
reported_property: IC50 (nM)
Reply numerically in nM, unit not repeated.

With UniProtKB P17706 as the test system, provide measured IC50 for this molecule: O=C1CC(c2ccc(CC(NS(=O)(=O)c3cccc(C(F)(F)F)c3)C3=NC[C@@H](Cc4ccccc4)N3)cc2)S(=O)(=O)N1 (some centres undefined) 120

With UniProtKB P17706 as the test system, provide measured IC50 for this molecule: O=C1CC(c2ccc(CC(NS(=O)(=O)c3cccc(F)c3)c3ncc(CCCc4ccccc4)[nH]3)cc2)S(=O)(=O)N1 (centres undefined) 24

With UniProtKB P17706 as the test system, provide measured IC50 for this molecule: Cc1cc(CC(NS(=O)(=O)c2cccc(F)c2)C2=NC[C@@H](CCOc3cccc(S(C)(=O)=O)c3)N2)ccc1C1CC(=O)NS1(=O)=O (some centres undefined) 25

With UniProtKB P17706 as the test system, provide measured IC50 for this molecule: O=C1CC(c2ccc(CC(NS(=O)(=O)c3cccc(F)c3)c3ncc(Cc4ccccc4)[nH]3)cc2)S(=O)(=O)N1 (centres undefined) 270

With UniProtKB P17706 as the test system, provide measured IC50 for this molecule: Cc1cc(CC(NS(=O)(=O)c2cccc(F)c2)C2=NC[C@@H](CCCCOc3cccc(O)c3C(=O)O)N2)ccc1C1CC(=O)NS1(=O)=O (some centres undefined) 46

With UniProtKB P17706 as the test system, provide measured IC50 for this molecule: C[C@@H]1CN=C(C(Cc2ccc(C3CC(=O)NS3(=O)=O)cc2)NS(=O)(=O)c2cccc(C(F)(F)F)c2)N1 (some centres undefined) 420

With UniProtKB P17706 as the test system, provide measured IC50 for this molecule: O=C1CC(c2ccc(CC(NS(=O)(=O)c3cccc(F)c3)c3ncc(CCc4ccccc4)[nH]3)cc2)S(=O)(=O)N1 (centres undefined) 100

With UniProtKB P17706 as the test system, provide measured IC50 for this molecule: O=C1CC(c2ccc(CC(NS(=O)(=O)c3cccc(C(F)(F)F)c3)C3=NCCN3)cc2)S(=O)(=O)N1 (centres undefined) 500

With UniProtKB P17706 as the test system, provide measured IC50 for this molecule: O=C1CC(c2ccc(CC(NS(=O)(=O)c3cccc(F)c3)C3=NC[C@@H](CCc4ccccc4)N3)cc2)S(=O)(=O)N1 (some centres undefined) 68

With UniProtKB P17706 as the test system, provide measured IC50 for this molecule: O=C1CC(c2ccc(CC(NS(=O)(=O)c3cccc(C(F)(F)F)c3)c3ncc(CCCc4ccccc4)[nH]3)cc2)S(=O)(=O)N1 (centres undefined) 51

With UniProtKB P17706 as the test system, provide measured IC50 for this molecule: O=C1CC(c2ccc(CC(NS(=O)(=O)c3cccc(C(F)(F)F)c3)c3ncc(CCc4ccccc4)[nH]3)cc2)S(=O)(=O)N1 (centres undefined) 170

With UniProtKB P17706 as the test system, provide measured IC50 for this molecule: O=C1CC(c2ccc(CC(NS(=O)(=O)c3cccc(F)c3)C3=NC[C@@H](Cc4ccccc4)N3)cc2)S(=O)(=O)N1 (some centres undefined) 140

With UniProtKB P17706 as the test system, provide measured IC50 for this molecule: Cc1cc(CC(NS(=O)(=O)c2cccc(F)c2)c2ncc(CCCOc3cccc(O)c3C(=O)O)[nH]2)ccc1C1CC(=O)NS1(=O)=O (centres undefined) 170

With UniProtKB P17706 as the test system, provide measured IC50 for this molecule: O=C1CC(c2ccc(CC(NS(=O)(=O)c3cccc(C(F)(F)F)c3)C3=NC[C@H](Cc4ccccc4)N3)cc2)S(=O)(=O)N1 (some centres undefined) 1100
